# Test system: primary human T-cells
# method: Proliferation assay after 5 days (CellTiter-Glo, CD3 stimulation; PBS counter screen)
# Type: cell-based
# reported_conditions: Homo sapiens, T-cell, 120 h, primary human T-cells, CD3 stimulation, CellTiter-Glo after 5 days; EC50 of fitted sigmoidal curve; read-out: Tcell Proliferation CD3 EC50
Property: EC50; scope: individual compounds
# unit: nM | format: bare number

[
  {
    "compound": "Cn1nnc(-c2cc3c(cc2F)S(=O)(=O)C[C@H](N)C(=O)N3Cc2ccc(Cl)cc2)n1 [Example 16]",
    "data_value": 3660
  },
  {
    "compound": "CC(C)(C)n1nc(-c2cc3c(cc2F)S(=O)(=O)C[C@H](N)C(=O)N3Cc2ccc(Cl)cc2)oc1=O [Example 510]",
    "data_value": 403
  },
  {
    "compound": "Cc1cc(S(C)(=O)=O)ccc1-c1nnc(-c2ccc3c(c2)N(Cc2ccc(Cl)cc2)C(=O)[C@@H](N)CS3(=O)=O)o1 [Example 379]",
    "data_value": 4850
  }
]

Please look at the following compound next.
// EC50 lookup, key: CC(C)(CN)c1nnc(-c2cc3c(cc2F)S(=O)(=O)C[C@H](N)C(=O)N3Cc2ccc(Cl)cc2)o1 [Example 111] 556

====

# Tested on: primary human T-cells
experimental_endpoint: pEC50
Scale: pEC50 equals -log10([C]), with [C] in mol/L.

# example entries with known answers
[
  {
    "compound": "CS(=O)(=O)CCc1nnc(-c2cc3c(cc2F)S(=O)(=O)C[C@H](N)C(=O)N3Cc2ccc(Cl)cc2)o1",
    "data_value": 5.27
  },
  {
    "compound": "CS(=O)(=O)N1CC(n2nnc(-c3cc4c(cc3F)S(=O)(=O)C[C@H](N)C(=O)N4Cc3ccc(Cl)cc3)n2)CC(F)(F)C1 (stereo partly drawn)",
    "data_value": 5.42
  },
  {
    "compound": "N[C@H]1CS(=O)(=O)c2cc(F)c(-c3nnc(N4CCC(F)(F)C(CO)C4)o3)cc2N(Cc2ccc(Cl)cc2)C1=O (stereo partly drawn)",
    "data_value": 5.09
  },
  {
    "compound": "Cc1ccc(-c2nnc(-c3cc4c(cc3F)S(=O)(=O)C[C@H](N)C(=O)N4Cc3ccc(Cl)cc3)o2)cc1",
    "data_value": 6.11
  }
]

Let us move to another entry and its pEC50.
Kindly state the measured pEC50 obtained for CC(C)(C)c1nnc(-c2cc3c(cc2F)[S+]([O-])C[C@H](N)C(=O)N3Cc2ccc(Cl)cc2)o1 (single isomer, unassigned; epimer b) [Example 187] with primary human T-cells. 6.23

====

# Tested on: primary human T-cells
# method: Proliferation assay after 5 days (CellTiter-Glo, CD3 stimulation; PBS counter screen)
# Assay type: cell-based
# reported_conditions: Homo sapiens, T-cell, 120 h, primary human T-cells, CD3 stimulation, CellTiter-Glo after 5 days; EC50 of fitted sigmoidal curve; read-out: Tcell Proliferation CD3 EC50
pEC50: −log10 of the molar value.
Label met for high-side pEC50 (at or above 6) and not met for low-side pEC50 (below it).

Completed entries (count: 4):
[
  {
    "compound": "CC(C)(C)c1nnc(-c2cc3c(cc2F)S(=O)(=O)C[C@H](N)C(=O)N3Cc2ccc(C3(O)COC3)cc2)o1",
    "class_label": "not met"
  },
  {
    "compound": "CC(C)Cc1nnc(-c2cc3c(cc2F)S(=O)(=O)C[C@H](N)C(=O)N3Cc2ccc(Cl)cc2)o1",
    "class_label": "met"
  },
  {
    "compound": "CC(C)(C)c1nnc(-c2ccc3c(c2)N(Cc2ccc(OC(F)(F)C(F)F)cc2)C(=O)[C@@H](N)CS3(=O)=O)o1",
    "class_label": "met"
  },
  {
    "compound": "N[C@H]1CS(=O)(=O)c2cc(F)c(-c3nc(CC(F)(F)F)no3)cc2N(Cc2ccc(Cl)cc2)C1=O",
    "class_label": "met"
  }
]

Decide: pEC50 of COC(C)(c1nnc(-c2ccc3c(c2)N(Cc2ccc(Cl)cc2)C(=O)[C@@H](N)CS3(=O)=O)o1)C(F)(F)F (some centres unmarked) >= 6? met

Is the recorded value of pEC50 equal to or greater than 6 for this compound? "CC(C)(C)c1nnc(-c2ccc3c(c2)N(Cc2ccc(Oc4ccc(C(F)(F)F)cn4)cc2)C(=O)[C@@H](N)CS3(=O)=O)o1" not met

====

Listed here: molecules with reported pEC50 for primary human T-cells.
# pEC50 is unitless: minus log10 of the molar concentration; print number only

Example cases with answers are listed next.
[
  {
    "molecule": "CC(C)(C)c1nnc(-c2ccc3c(c2)N(Cc2ccc(OC(F)(F)F)cc2)C(=O)[C@@H](N)CS3(=O)=O)o1 [Example 360]",
    "data_value": 6.04
  },
  {
    "molecule": "N[C@H]1CS(=O)(=O)c2ccc(-c3nnc(-c4ccccc4F)o3)cc2N(Cc2ccc(Cl)cc2)C1=O [Example 376]",
    "data_value": 5.50
  },
  {
    "molecule": "COC(=O)N1CCC(c2nnc(-c3cc4c(cc3F)S(=O)(=O)C[C@H](N)C(=O)N4Cc3ccc(Cl)cc3)o2)C1 (stereo partly shown) [Example 166]",
    "data_value": 6.25
  },
  {
    "molecule": "CC(C)(C)n1nnc(-c2cc3c(cc2F)S(=O)(=O)C[C@H](N)C(=O)N3Cc2ccc(OCC3CCOCC3)cc2)n1 [Example 33]",
    "data_value": 5.28
  },
  {
    "molecule": "CC(C)Oc1ccc(CN2C(=O)[C@@H](N)CS(=O)(=O)c3cc(F)c(-c4noc(C5CN(C)CC(F)(F)C5)n4)cc32)cn1 (stereo partly shown) [Example 347]",
    "data_value": 5.46
  },
  {
    "molecule": "N[C@H]1CS(=O)(=O)c2cc(F)c(-c3nnc(C4CCC4(F)F)o3)cc2N(Cc2ccc(Cl)cc2)C1=O (stereo partly shown) [Example 81]",
    "data_value": 5.90
  },
  {
    "molecule": "N[C@H]1CS(=O)(=O)c2cc(F)c(-c3noc(NC4CCC4)n3)cc2N(Cc2ccc(Cl)cc2)C1=O [Example 195]",
    "data_value": 6.78
  },
  {
    "molecule": "CC(C)(C)c1nnc(-c2ccc3c(c2)N(Cc2ccc(Cl)cc2)C(=O)[C@@H](N)CS3(=O)=O)o1 [Example 361]",
    "data_value": 6.28
  },
  {
    "molecule": "CC(C)(C)c1nnc(-c2ccc3c(c2)N(Cc2ccc(Oc4ccc(C(F)(F)F)cn4)cc2)C(=O)[C@@H](N)CS3(=O)=O)o1 [Example 440]",
    "data_value": 5.60
  },
  {
    "molecule": "CCn1cc(-c2cc3c(cc2F)S(=O)(=O)C[C@H](N)C(=O)N3Cc2ccc(Cl)cc2)cn1 [Example 279]",
    "data_value": 6.33
  }
]

Recorded pEC50 of CC(C)(CN1CCCCC1=O)c1nnc(-c2cc3c(cc2F)S(=O)(=O)C[C@H](N)C(=O)N3Cc2ccc(Cl)cc2)o1 [Example 66] , please. 5.88

Which measured pEC50 value corresponds to CC(C)(C)c1ccn(-c2cc3c(cc2F)S(=O)(=O)C[C@H](N)C(=O)N3Cc2ccc(Cl)cc2)n1 [Example 283] ? 6.00

Need pEC50 of CC(C)(N)c1nnc(-c2cc3c(cc2F)S(=O)(=O)C[C@H](N)C(=O)N3Cc2ccc(Cl)cc2)o1 [Example 69] , thanks. 5.78

Look up pEC50 for this molecule: CC(CO)(CCl)c1nnc(-c2cc3c(cc2F)S(=O)(=O)C[C@H](N)C(=O)N3Cc2ccc(Cl)cc2)o1 (stereo partly shown) [Example 115] 5.65

Request the reported pEC50 associated with N[C@H]1CS(=O)(=O)c2cc(F)c(-c3nnc(C4CC(F)(F)C4)o3)cc2N(Cc2ccc(Cl)cc2)C1=O [Example 80] 6.75

Which measured pEC50 value corresponds to CC(C)(CO)c1noc(-c2cc3c(cc2F)S(=O)(=O)C[C@H](N)C(=O)N3Cc2ccc(Cl)cc2)n1 (racemic) [Example 46] ? 6.16

====

# Test system: primary human T-cells
# method: Proliferation assay after 5 days (CellTiter-Glo, CD3 stimulation; PBS counter screen)
# Assay type: cell-based
# reported_conditions: Homo sapiens, T-cell, 120 h, primary human T-cells, CD3 stimulation, CellTiter-Glo after 5 days; EC50 of fitted sigmoidal curve; read-out: Tcell Proliferation CD3 EC50
# Method: Compounds are then added (see next section) to medium only plates. Cells are assessed for proliferation 5 days later by measuring […] using CellTiterGlo (Promega). After 5 days, for detection of ATP which is directly proportional to the number of cells present per well, the CellTiter-Glo® 2.0 Reagent is used. […] Luminescence is measured with PHERAstar FSX (interval time 0.5 sec, gain 3000, focal height 15 mm) and exported as CSV file for analysis in Genedata screener. […]
hey, just use Y if measured EC50 is less than 1 µM, otherwise N

[
  {
    "compound": "COC(=O)N1CCC(n2nnc(-c3cc4c(cc3F)S(=O)(=O)C[C@H](N)C(=O)N4Cc3ccc(Cl)cc3)n2)C1 (stereo partly drawn)",
    "class_label": "N"
  },
  {
    "compound": "CS(=O)(=O)N1CC2CC2(c2nnc(-c3cc4c(cc3F)S(=O)(=O)C[C@H](N)C(=O)N4Cc3ccc(Cl)cc3)o2)C1 (stereo partly drawn)",
    "class_label": "N"
  },
  {
    "compound": "N[C@H]1CS(=O)(=O)c2cc(F)c(-c3nnc(C4CC(F)(F)C4)o3)cc2N(Cc2ccc(Cl)cc2)C1=O",
    "class_label": "Y"
  },
  {
    "compound": "CN[C@@H](C)C(=O)N[C@H]1CS(=O)(=O)c2cc(F)c(-c3nnc(CC(F)(F)F)o3)cc2N(Cc2ccc(OC(F)(F)F)cc2)C1=O",
    "class_label": "Y"
  }
]

Here's an entry: N[C@H]1CS(=O)(=O)c2cc(F)c(-c3nnc(C4CCCC4(F)F)o3)cc2N(Cc2ccc(Cl)cc2)C1=O (stereo partly drawn) . Is its EC50 below 1 µM? N

Does the reported EC50 of the following compound sit strictly below 1 µM? CN1CCCC(c2nnc(-c3cc4c(cc3F)S(=O)(=O)C[C@H](N)C(=O)N4Cc3ccc(Cl)cc3)o2)C1 (stereo partly drawn) N
